# Tested on: COLO 205 colon
# Test description: NCI tumour cell line growth inhibition, 48 h

Molecule	TGI
COc1ccccc1S(=O)(=O)Nc1ccc2c3c(cc(CCC(=O)NCCCCNc4cccc5c4C(=O)N(C4CCC(=O)NC4=O)C5=O)cc13)C(=O)N2C (centres undefined)	8.08 µM
CC(C)(C)C1=C(Br)C(O)(C(C)(C)C)OP1(=O)c1ccccc1 (centres undefined)	> 100 µM
CC(C)CCOC(=O)NC(Nc1ccc(F)cc1)(C(F)(F)F)C(F)(F)F	42.1 µM
CCCCCCCC1(c2ccc(N)cc2)CCC(=O)NC1=O (centres undefined)	52.5 µM
Clc1ccc(C2=CCN3CC=C(c4ccc(Cl)cc4)C23)cc1	6.28 µM
COc1ccc(C(=O)/C=C/c2cc(-c3cc(OC)c(OC)c(OC)c3)n[nH]2)cc1	3.24 µM
CC1(C)CC[C@]2(C(=O)O)CC[C@]3(C)[C@H](C(=O)C=C4[C@@]5(C)C=C(C#N)C(=O)C(C)(C)[C@@H]5CC[C@]43C)[C@@H]2C1	1.49 µM
COc1cccc2cc(N(C)c3nc(C)nc4c3CCC4)ccc12	< 0.01 µM
COC(=O)Nc1nc2ccc(NC(=O)c3ccc(I)cc3)cc2[nH]1	> 100 µM

----------
# Tested on: MALME-3M melanoma
# Test description: NCI tumour cell line growth inhibition, 48 h; in the data active = GI50 below about 0.43 µM; inactive = the rest
Outcomes: active, inactive

Compound	Discrete label
Cc1cc(N(CCOS(C)(=O)=O)CCOS(C)(=O)=O)ccc1C(=O)O	inactive
CC/C(Cc1ccccc1)=C(\c1ccc(OCCN2CCCC2)cc1)c1ccc(OC(=O)NCc2ccccc2)cc1	inactive
COc1ccc(-c2ccc(/C=N/n3c(COc4ccccc4Cl)nn(CN4CCOCC4)c3=S)o2)c([N+](=O)[O-])c1	inactive
O=C(/C=C/C=C/c1ccccc1)c1ccco1	inactive
CCC[CH2][Sn]([CH2]CCC)([S]C#N)[S]C#N	inactive
COc1cccc2cc(N(C)c3nc(C)nc4c3CCC4)ccc12	inactive
CN=C1C=CC(=C(c2ccc(N(C)C)cc2)c2ccc(N(C)C)cc2)C=C1	active
CC(C)N(Cc1ccc(CN(C(=O)CCl)C(C)C)cc1)C(=O)CCl	active
O=C1CSC(c2ccccc2Cl)N1c1nnc(Cn2cnnc2)o1 (stereo not given)	inactive
COc1ccc(-c2cncn2-c2cc(OC)c(OC)c(OC)c2)cc1	active
NC(=O)c1ccc(Oc2nccc(-c3c(-c4ccc(F)cc4)ncn3C3CCNCC3)n2)cc1	inactive
[N-]=[N+]=NCCCn1c2c(c3ccc([N+](=O)[O-])cc3c1=O)C(=O)c1cc(Br)ccc1-2	inactive
COc1cc(C2C3=C(COC3=O)N(CCO)c3cc4c(cc32)OCCO4)cc(OC)c1OC (stereo not given)	inactive
COc1ccc(-c2nc(-c3nc4ccc(C)cc4[nH]3)cc3c2[nH]c2ccccc23)cc1	inactive
O=C(Nc1ccccc1I(=O)=O)C1CCCCC1	inactive

----------
# Tested on: 786-0 renal
# Test description: NCI tumour cell line growth inhibition, 48 h; in the data active = GI50 below about 0.43 µM; inactive = the rest
Outcomes: y = active, n = inactive

Compound	Discrete label
NC(=O)c1ccc(Oc2nccc(-c3c(-c4ccc(F)cc4)ncn3C3CCNCC3)n2)cc1	n
CCCCCC(O)C(O)CCC[C@H](O)[C@H]1CC[C@H]([C@H]2CC[C@H]([C@H](O)CCCCCCCCCCCCC3=C[C@H](C)OC3=O)O2)O1 (some centres undefined)	n
O=C(NCCCc1cn[nH]c1)c1ccc(-c2ccncc2)c(C#Cc2ccc(F)cc2)c1	n
Cc1cc(-c2c(F)cc3c4nn([C@H]5CC[C@@H](N(C)C)CC5)c(=O)c-4cn(C4CC4)c3c2F)cc(C)n1	y
COc1cc(C2C3=C(COC3=O)N(CCO)c3cc4c(cc32)OCCO4)cc(OC)c1OC (centres undefined)	y
[N-]=[N+]=NCCCn1c2c(c3ccc([N+](=O)[O-])cc3c1=O)C(=O)c1cc(Br)ccc1-2	n
Cc1cc(N(CCOS(C)(=O)=O)CCOS(C)(=O)=O)ccc1C(=O)O	n
CN(C)CCCn1c(=O)c2ccccc2c2cnc3[nH]ccc3c21	n
N#CC1=C(N)Oc2c(ccc3ccccc23)C1c1cc(=O)oc2ccc(Cl)cc12 (centres undefined)	n

Where do the numbers come from? From PubChem BioAssay (NCI).
